# experimentalDetails: basal RPMI8226 viability, no added stimulus, profiling panel, cell-based, calcein-AM fluorescence, 48 h, PK04 Diversity Set (AID 1166);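 also: cells grown under basal conditions without added stimulus; test concentration not given here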
# testParameters: RPMI8226 myeloma viability, higher = more signal
Kindly supply the reported z-score values for the records listed here.
Answers are plain numbers.

Use the examples below as a reference point.
compound: Cc1ccc(S[C@]2(C(=O)NCc3ccccc3)CC(=O)N(Cc3ccccc3C(F)(F)F)[C@@H]2c2ccc(CO)cc2I)cc1
z-score: -2.16
--
compound: O=C1C2C=CC(C(O)C3CCCCC3)N(Nc3ccccc3F)C2C(=O)N1c1ccccc1 (configuration not stated)
z-score: -0.925
--
compound: CC(C)C[C@H]1NC(=O)CNC(=O)[C@@]23C(=O)N[C@@H](Cc4ccccc4)C2[C@H](C)[C@@]2(C)O[C@H]2C3/C=C/C/C=C\CNC1=O (some centres not stated)
z-score: -0.0815
--
compound: O=C1OCCC/C=C\[C@H]2OC34C=CCN(Cc5ccccc5)C(=O)[C@H]3N(CCO)C(=O)[C@@H]4C12 (some centres not stated)
z-score: 0.998
--
compound: COC(=O)C(CC#Cc1ccc2c(c1)[C@]1(C(=O)N2)[C@H](C(=O)NC[C@H](O)c2ccccc2)[C@H]2C(=O)O[C@H](c3ccccc3)[C@H](c3ccccc3)N2[C@@H]1c1ccc(O)cc1)C(=O)OC
z-score: -1.97
--
compound: C[C@@]1([C@@H](NS(=O)(=O)c2cccc3cccnc23)c2ccc(-c3ccccc3)cc2)C[C@H]1C1CCCCC1
z-score: -1.08

Here is another compound to look at.
Return z-score (reported value) for this compound: "C=CC[C@]1(C(=O)NCCN2CCOCC2)N=C(c2ccc(OCCCO)cc2)O[C@H]1c1ccccc1"
0.0634

---

# experimentalDetails: MM1S myeloma cell viability, profiling panel, resazurin fluorescence, basal, 24 h, PK04 Diversity Set (AID 1174);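 also: MM1S multiple myeloma cell line; test concentration not given here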
# testParameters: higher = more signal, called active from +8 up or from −8 down
Binary classification by z-score, with -0.6 as an inclusive lower bound for yes (1); all other cases are no (0).

Below are worked cases with known answers.
molecule: O=C1N(Cc2ccccc2)Cc2ccccc2C[C@@]12COC(c1ccc(OCCCO)cc1)=N2
class: no (0)
--
molecule: CN1C(=O)C2C=CC(C(O)c3ccc(I)cc3)N(N(c3ccccc3)c3ccccc3)C2C1=O (configuration not stated)
class: no (0)
--
molecule: COc1ccc(CCNC(=O)[C@@]2(c3ccc([N+](=O)[O-])cc3)CC(=O)N(C3CCCCC3)[C@@H]2c2ccc(CO)cc2I)cc1
class: no (0)
--
molecule: CCCC=C(CCC)[C@@H](NC(=O)c1ccc(C(=O)OC)cc1)c1ccc(C(=O)OC)cc1
class: no (0)
--
molecule: CC(C)C(=C=CC[C@H](O)c1cccc(OCCO)c1)C[C@H](O)c1ccccn1
class: yes (1)

Confirm if z-score reported for the molecule "COC(=O)C(CC#Cc1ccc2c(c1)[C@]1(C(=O)N2)[C@H](C(N)=O)[C@H]2C(=O)O[C@H](c3ccccc3)[C@H](c3ccccc3)N2[C@@H]1c1ccccc1OCCO)C(=O)OC" is -0.6 or above.
no (0)

Confirm if z-score reported for the molecule "CCCCC(=C=CC[C@H](O)c1cccc(OCCO)c1)C[C@H](O)c1cc(Cl)cc(Cl)c1O" is -0.6 or above.
yes (1)

Confirm if z-score reported for the molecule "CCCCC(=C=CC[C@@H](O)c1ccc(OCCO)cc1)CCO" is -0.6 or above.
yes (1)

Confirm if z-score reported for the molecule "CC(C)Cc1ccc(CN2CC[C@@H](NC(=O)c3ccccc3)C2)cc1" is -0.6 or above.
yes (1)

Confirm if z-score reported for the molecule "O=C(NCC(F)(F)F)[C@@H]1c2ccccc2C(=O)N(Cc2cc(C(F)(F)F)cc(C(F)(F)F)c2)[C@H]1c1ccc(CO)cc1" is -0.6 or above.
yes (1)

Confirm if z-score reported for the molecule CC1C2C(CCCO)=CC(C3C(=O)N(C(N)=O)C(=O)C23)N1Cc1cccc(OC(F)(F)F)c1 (configuration not stated) is -0.6 or above.
yes (1)

Confirm if z-score reported for the molecule COc1ccc(NN2C(C(O)c3ccccc3)C=CC3C(=O)N(C4CCCCC4)C(=O)C32)cc1 (configuration not stated) is -0.6 or above.
yes (1)

Confirm if z-score reported for the molecule COc1ccc(C(O)C2C=CC3C(=O)N(c4ccccc4)C(=O)C3N2Nc2ccccc2F)c2ccccc12 (configuration not stated) is -0.6 or above.
yes (1)

Confirm if z-score reported for the molecule "C=C(CC1([C@@H](NP(=O)(c2ccccc2)c2ccccc2)[C@H]2C[C@@H]2CCCC)CC1)c1cccc(OC)c1" is -0.6 or above.
yes (1)

Confirm if z-score reported for the molecule "COCCOC(=O)N1C(=O)[C@@]2(c3cc(C#CCNC(N)=O)ccc31)[C@H](C(N)=O)[C@H]1C(=O)O[C@H](c3ccccc3)[C@H](c3ccccc3)N1[C@@H]2c1ccc(O)cc1" is -0.6 or above.
yes (1)

Confirm if z-score reported for the molecule CN1C(=O)C2C(C1=O)C1C=C(CCCO)C2C(C2CC2)N1C (configuration not stated) is -0.6 or above.
yes (1)

Confirm if z-score reported for the molecule CC(C)c1ccc(NN2C(C(O)c3ccccc3)C=CC3C(=O)N(c4ccccc4)C(=O)C32)cc1 (configuration not stated) is -0.6 or above.
no (0)
